Reported AUC(0-t) is given for each of the following compounds.
test: Rat 28-day toxicokinetics; type: in vivo; conditions: female, Sprague Dawley (Crl:CD (SD)IGS BR), plasma, po, 800 mg/kg, Day 1, female, read-out: AUC0-t(last)
Give your result in µg·h/mL as a bare value.

Some compounds with recorded AUC(0-t):
compound	AUC(0-t) / µg·h/mL
CSc1ccc(OCc2ncc([N+](=O)[O-])n2C)cc1	15.7
Cn1c([N+](=O)[O-])cnc1COc1ccc([S+](C)[O-])cc1 (stereo not drawn) [Fexinidazole sulfoxide]	453

Please turn your attention to the following entry.
AUC(0-t) reading for `Cn1c([N+](=O)[O-])cnc1COc1ccc(S(C)(=O)=O)cc1` : 683
